assay: Volume of distribution at steady state in Lewis rat at 1 mg/kg, iv administered via infusion over 30 mins measured after 24 hrs by LC/MS/MS analysis; format: ADME, organism-based; settings: in vivo, read-out: Vdss
assayMetric: Vd (L/kg)
Supply the numeric figure in L/kg, leaving out any unit text.

Q) // Vd lookup, key: C[C@H](Nc1nc(N)nc(N)c1C#N)c1nc2cccc(F)c2c(=O)n1-c1cc(F)cc(F)c1
A) 2.6

###

assay: Oral bioavailability in Lewis rat at 5 mg/kg administered through gavage measured after 24 hrs by LC/MS/MS analysis; type: ADME, organism-based; settings: in vivo
assayMetric: bioavailability (%)
Supply the numeric figure in %, leaving out any unit text.

Q) // bioavailability lookup, key: C[C@H](Nc1nc(N)nc(N)c1C#N)c1nc2cccc(F)c2c(=O)n1-c1cc(F)cc(F)c1
A) 106

###

Parameter IC50: see the listing below.
biological target: PI3-kinase p110-delta/p85-alpha (Homo sapiens, UniProt O00329); experiment: Inhibition human full length PI3Kdelta catalytic subunit/p85alpha assessed as formation of PIP3 after 30 mins by europium labeled GRP-based TR-FRET assay
Sequence (P27986 whole entry, one chain of several): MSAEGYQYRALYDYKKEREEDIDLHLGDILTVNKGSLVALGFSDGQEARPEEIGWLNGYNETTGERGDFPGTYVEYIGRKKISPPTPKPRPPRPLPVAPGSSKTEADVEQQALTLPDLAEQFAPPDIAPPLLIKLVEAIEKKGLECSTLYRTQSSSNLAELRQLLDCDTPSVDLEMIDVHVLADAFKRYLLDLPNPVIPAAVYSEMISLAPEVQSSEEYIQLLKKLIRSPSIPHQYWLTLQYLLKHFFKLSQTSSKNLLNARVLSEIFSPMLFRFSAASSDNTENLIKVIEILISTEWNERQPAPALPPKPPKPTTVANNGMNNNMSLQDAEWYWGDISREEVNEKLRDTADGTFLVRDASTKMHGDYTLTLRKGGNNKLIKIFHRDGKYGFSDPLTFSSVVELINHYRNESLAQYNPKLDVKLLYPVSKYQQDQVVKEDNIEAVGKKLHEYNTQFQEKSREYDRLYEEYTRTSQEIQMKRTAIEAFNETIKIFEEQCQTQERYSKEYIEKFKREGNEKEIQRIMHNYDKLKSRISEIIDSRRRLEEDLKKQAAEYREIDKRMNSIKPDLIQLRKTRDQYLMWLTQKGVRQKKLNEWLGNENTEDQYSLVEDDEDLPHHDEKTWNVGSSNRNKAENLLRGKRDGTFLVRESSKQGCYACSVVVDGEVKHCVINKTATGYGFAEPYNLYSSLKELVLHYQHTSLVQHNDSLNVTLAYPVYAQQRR
Supply the numeric figure in nM, leaving out any unit text.

Recorded IC50, per entry:
• C[C@H](Nc1nc(N)nc(N)c1C#N)c1nc2cccc(Cl)c2c(=O)n1-c1cccc(C(F)F)c1 = 0.54
• C[C@H](Nc1cc(N)ncn1)c1nc2cccc(Cl)c2c(=O)n1-c1ccccc1 = 99
• C[C@H](Nc1ncnc(N)c1C#Cc1cnccn1)c1nc2cccc(Cl)c2c(=O)n1-c1ccccc1 = 0.4
• C[C@H](Nc1nc(N)nc(N)c1C#N)c1nc2cccc(Cl)c2c(=O)n1-c1ccc(F)cc1 = 2
• C[C@H](Nc1ncncc1C#N)c1nc2cccc(Cl)c2c(=O)n1-c1ccccc1 = 8

Q) // IC50 lookup, key: COc1cccc(-n2c([C@H](C)Nc3nc(N)nc(N)c3C#N)nc3cccc(Cl)c3c2=O)c1
A) 0.9

Q) // IC50 lookup, key: C[C@H](Nc1ncnc(N)c1C#N)c1nc2cccc(Cl)c2c(=O)n1-c1ccccc1
A) 0.4

Q) // IC50 lookup, key: COc1c(N)ncnc1N[C@@H](C)c1nc2cccc(Cl)c2c(=O)n1-c1ccccc1
A) 39

Q) // IC50 lookup, key: C[C@H](Nc1nc(N)nc(N)c1C#N)c1nc2cccc(F)c2c(=O)n1-c1cc(F)cc(F)c1
A) 2.2

Q) // IC50 lookup, key: C[C@H](Nc1nc(N)nc(N)c1C#N)c1nc2cccc(Cl)c2c(=O)n1-c1cc(C#N)cc(C#N)c1
A) 150

Q) // IC50 lookup, key: C[C@H](Nc1nc(N)nc(Cl)c1C#N)c1nc2cccc(Cl)c2c(=O)n1-c1ccccc1
A) 1

Q) // IC50 lookup, key: C[C@H](Nc1nc(N)nc(N)c1C#N)c1nc2cccc(Cl)c2c(=O)n1-c1cccc(C#N)c1
A) 1.9

Q) // IC50 lookup, key: C[C@H](Nc1ncnc(N)c1C#Cc1cccnc1)c1nc2cccc(Cl)c2c(=O)n1-c1ccccc1
A) 0.5

Q) // IC50 lookup, key: C[C@H](Nc1ccnc(N)c1C#N)c1nc2cccc(Cl)c2c(=O)n1-c1ccccc1
A) 30

Q) // IC50 lookup, key: C[C@H](Nc1nc(N)ncc1C#N)c1nc2cccc(Cl)c2c(=O)n1-c1ccccc1
A) 2.5

Q) // IC50 lookup, key: C[C@H](Nc1ccncn1)c1nc2cccc(Cl)c2c(=O)n1-c1ccccc1
A) 1700

###

biological target: Phosphatidylinositol 4,5-bisphosphate 3-kinase catalytic subunit delta isoform (Homo sapiens); experiment: Inhibition of PI3Kdelta in human whole blood assessed as basophil degranulation by measuring CD63 surface expression on CCR3 positive cells after 60 mins by flow cytometric analysis
Sequence (O00329 whole entry, canonical isoform): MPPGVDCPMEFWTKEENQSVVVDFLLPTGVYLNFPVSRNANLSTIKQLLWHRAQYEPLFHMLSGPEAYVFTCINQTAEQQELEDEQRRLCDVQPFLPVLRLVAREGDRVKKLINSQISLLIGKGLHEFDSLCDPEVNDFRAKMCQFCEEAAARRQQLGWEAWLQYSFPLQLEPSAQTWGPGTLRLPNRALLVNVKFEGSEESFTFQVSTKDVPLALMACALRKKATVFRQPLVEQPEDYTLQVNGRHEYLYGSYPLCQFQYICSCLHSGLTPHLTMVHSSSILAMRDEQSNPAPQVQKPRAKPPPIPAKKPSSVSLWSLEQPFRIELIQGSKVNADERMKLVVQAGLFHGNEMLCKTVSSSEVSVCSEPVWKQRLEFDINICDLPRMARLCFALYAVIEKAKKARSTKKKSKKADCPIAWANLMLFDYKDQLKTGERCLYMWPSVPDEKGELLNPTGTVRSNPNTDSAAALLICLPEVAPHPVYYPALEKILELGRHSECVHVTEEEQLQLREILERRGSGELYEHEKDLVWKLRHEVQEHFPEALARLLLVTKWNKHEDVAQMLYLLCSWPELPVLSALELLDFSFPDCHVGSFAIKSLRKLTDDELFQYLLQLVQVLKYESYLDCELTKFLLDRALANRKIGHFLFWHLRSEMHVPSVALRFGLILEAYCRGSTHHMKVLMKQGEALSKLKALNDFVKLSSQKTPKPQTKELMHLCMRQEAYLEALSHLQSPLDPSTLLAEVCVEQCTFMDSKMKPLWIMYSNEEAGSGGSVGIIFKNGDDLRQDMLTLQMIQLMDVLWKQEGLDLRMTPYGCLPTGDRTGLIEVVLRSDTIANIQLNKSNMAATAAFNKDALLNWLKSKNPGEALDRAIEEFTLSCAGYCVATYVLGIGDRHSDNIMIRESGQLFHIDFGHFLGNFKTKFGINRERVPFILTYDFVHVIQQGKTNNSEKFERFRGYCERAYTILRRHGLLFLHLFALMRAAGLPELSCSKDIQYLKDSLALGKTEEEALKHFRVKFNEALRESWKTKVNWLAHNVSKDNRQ
assayMetric: pEC50
Schema: pEC50 number; meaning minus log10 of the concentration expressed in molar units.

Q) // pEC50 lookup, key: C[C@H](Nc1nc(N)nc(N)c1C#N)c1nc2cccc(F)c2c(=O)n1-c1cc(F)cc(F)c1
A) 9.00

###

species: Homo sapiens; assay: Selectivity ratio of IC50 for human recombinant PI3Kbeta to IC50 for human full length PI3Kdelta catalytic subunit/p85alpha
assayMetric: Ratio IC50
Give only the figure.

Recorded Ratio IC50, per entry:
* C[C@H](Nc1ncnc(N)c1C#Cc1ccccc1)c1nc2cccc(Cl)c2c(=O)n1-c1ccccc1 | 120
* C[C@H](Nc1nc(N)nc(N)c1C#N)c1nc2cccc(F)c2c(=O)n1-c1cc(F)cc(F)c1 | 650
* C[C@H](Nc1ncnc(N)c1C(F)(F)F)c1nc2cccc(Cl)c2c(=O)n1-c1ccccc1 | 340
* C[C@H](Nc1nc(N)nc(N)c1C#N)c1nc2cccc(Cl)c2c(=O)n1-c1cccc(C#N)c1 | 340
* C[C@H](Nc1nc(N)nc(N)c1C#N)c1nc2cccc(Cl)c2c(=O)n1-c1cccc(Cl)c1 | 140

Moving on to another compound below.
Q) // Ratio IC50 lookup, key: C[C@H](Nc1ncnc(N)c1C#N)c1nc2cccc(Cl)c2c(=O)n1-c1ccccc1
A) 200

###

species: Homo sapiens; test: Selectivity ratio of IC50 for human recombinant PI3Kbeta to IC50 for human full length PI3Kdelta catalytic subunit/p85alpha
Parameter Ratio IC50: see the listing below.

Recorded Ratio IC50, per entry:
* C[C@H](Nc1ncnc(N)c1C#Cc1ccc(F)cn1)c1nc2cccc(Cl)c2c(=O)n1-c1ccccc1 | 330
* C[C@H](Nc1ncnc(N)c1C#Cc1cccnn1)c1nc2cccc(Cl)c2c(=O)n1-c1ccccc1 | 30
* C[C@H](Nc1ccncn1)c1nc2cccc(Cl)c2c(=O)n1-c1ccccc1 | > 6
* C[C@H](Nc1nc(N)nc(N)c1Cl)c1nc2cccc(Cl)c2c(=O)n1-c1ccccc1 | 370

Q) // Ratio IC50 lookup, key: C[C@H](Nc1nc(N)nc(N)c1C#N)c1nc2cccc(Cl)c2c(=O)n1-c1ccc(F)cc1
A) 4

Q) // Ratio IC50 lookup, key: C[C@H](Nc1nc(N)nc(N)c1C#N)c1nc2cccc(Cl)c2c(=O)n1-c1ccccc1
A) 80

Q) // Ratio IC50 lookup, key: C[C@H](Nc1nc(N)ncc1C#N)c1nc2cccc(Cl)c2c(=O)n1-c1ccccc1
A) 170

Q) // Ratio IC50 lookup, key: C[C@H](Nc1ncnc(N)c1C#Cc1cccnc1)c1nc2cccc(Cl)c2c(=O)n1-c1ccccc1
A) 240

Q) // Ratio IC50 lookup, key: C[C@H](Nc1nc(N)nc(N)c1C#N)c1nc2c(C#N)cccc2c(=O)n1-c1cc(F)cc(F)c1
A) 1200

###

assay: Volume of distribution at steady state in Sprague-Dawley rat at 0.44 mg/kg, iv by LC/MS/MS analysis; assay type: ADME, organism-based; conditions: in vivo, read-out: Vdss
assayMetric: Vd (L/kg)
Supply the numeric figure in L/kg, leaving out any unit text.

Q) // Vd lookup, key: C[C@H](Nc1ncnc(N)c1C#N)c1nc2cccc(Cl)c2c(=O)n1-c1ccccc1
A) 2.6

###

species on record: Homo sapiens; test: Selectivity ratio of IC50 for human full length PI3Kalpha catalytic subunit/p85alpha to IC50 for human full length PI3Kdelta catalytic subunit/p85alpha
Parameter Ratio IC50: see the listing below.

* COc1c(N)ncnc1N[C@@H](C)c1nc2cccc(Cl)c2c(=O)n1-c1ccccc1 | > 251
* Cc1c(N)ncnc1N[C@@H](C)c1nc2cccc(Cl)c2c(=O)n1-c1ccccc1 | 700
* Cc1nc(N)nc(N[C@@H](C)c2nc3cccc(Cl)c3c(=O)n2-c2ccccc2)c1C#N | 1900

Q) // Ratio IC50 lookup, key: C[C@H](Nc1nc(N)nc(N)c1C#N)c1nc2cccc(Cl)c2c(=O)n1-c1cc(Cl)cc(C(F)F)c1
A) 850

Q) // Ratio IC50 lookup, key: C[C@H](Nc1nc(N)nc(N)c1C#N)c1nc2c(C#N)cccc2c(=O)n1-c1cc(F)cc(F)c1
A) 1700

###

experiment: Volume of distribution at steady state in beagle dog at 1 mg/kg, iv administered via infusion over 30 mins measured after 24 hrs by LC/MS/MS analysis; assay type: ADME, organism-based, Canis lupus familiaris; conditions: in vivo, read-out: Vdss
assayMetric: Vd (L/kg)
Supply the numeric figure in L/kg, leaving out any unit text.

Q) // Vd lookup, key: C[C@H](Nc1nc(N)nc(N)c1C#N)c1nc2cccc(F)c2c(=O)n1-c1cc(F)cc(F)c1
A) 1.3

###

assay: Inhibition of PI3Kdelta in rat B-cells assessed as reduction in anti IgD-mediated cell activation after 18 to 24 hrs by flow cytometric analysis
assayMetric: EC50
Quote the value and follow it with the unit of measurement.

Q) // EC50 lookup, key: C[C@H](Nc1nc(N)nc(N)c1C#N)c1nc2cccc(F)c2c(=O)n1-c1cc(F)cc(F)c1
A) 11 nM

###

species: Homo sapiens; test: Selectivity ratio of IC50 for human recombinant PI3Kbeta to IC50 for human full length PI3Kdelta catalytic subunit/p85alpha
assayMetric: Ratio IC50
Give only the figure.

Recorded Ratio IC50, per entry:
* C[C@H](Nc1nc(N)nc(N)c1C#N)c1nc2cccc(Cl)c2c(=O)n1-c1cccc(F)c1 | 550
* C[C@H](Nc1nc(N)nc(N)c1C#N)c1nc2cccc(Cl)c2c(=O)n1-c1cccc(CC(F)F)c1 | 230
* C[C@H](Nc1nc(N)nc(N)c1C#N)c1nc2cccc(Cl)c2c(=O)n1-c1cccc(C(F)F)c1 | 190
* Cc1c(N)ncnc1N[C@@H](C)c1nc2cccc(Cl)c2c(=O)n1-c1ccccc1 | 380
* C[C@H](Nc1nc(N)nc(N)c1C#N)c1nc2cccc(Cl)c2c(=O)n1-c1cc(F)cc(F)c1 | 520
* C[C@H](Nc1nc(N)nc(Cl)c1C#N)c1nc2cccc(Cl)c2c(=O)n1-c1ccccc1 | 100
* C[C@H](Nc1nc(N)nc(N)c1C#N)c1nc2ccccc2c(=O)n1-c1cc(F)cc(F)c1 | 290

Moving on to another molecule below.
Q) // Ratio IC50 lookup, key: C[C@H](Nc1nc(Cl)nc(N)c1C#N)c1nc2cccc(Cl)c2c(=O)n1-c1ccccc1
A) 180
